The following compounds are listed with their measured CC50 values.
Tested on: HT29
protocol description: SRB colorimetric cell growth inhibition assay, HT29
details: read-out: LC50; HT29 cells; cell killing; SRB, 48 hours exposure
Starred links: 1 amine or outer side, 2 acyl side, 3 side chain; linkers in the order of their positions; H or OH if unused. Positions of bridges follow the written chain, without caps; N, C: chain ends. Non-standard residues stand in square brackets, D forms with d. Residues, ends and D or L forms follow the SMILES beside them. Hexanoyl(3S-OH,4R-NH2,5-Me) = CC(C)[C@@H](N[*:1])[C@@H](O)CC(=O)[*:2]; NMeY = CN[C@@H](Cc1ccc(O)cc1)C(=O)O; NMeF = CN[C@@H](Cc1ccccc1)C(=O)O; dNMeL = CN[C@H](CC(C)C)C(=O)O; Hiv = CC(C)[C@H](O)C(=O)O; Lac = C[C@H](O)C(=O)O
Write down the numeric answer in µM and omit the unit.

- compound: "CC(C)C[C@@H]1NC(=O)[C@H](C(C)C)OC(=O)C[C@H](O)[C@@H](C(C)C)NC(=O)[C@@H](NC(=O)[C@@H](CC(C)C)N(C)C(=O)[C@@H]2CCCN2C(=O)[C@H](C)O)[C@@H](C)OC(=O)[C@H](Cc2ccccc2)N(C)C(=O)[C@@H]2CCCN2C1=O [Phe^5 tamandarin B, [N-MePhe^5]-Tamandarin B] (H-[Lac]P[dNMeL]T[Hexanoyl(3S-OH,4R-NH2,5-Me)][Hiv]LP[NMeF]; ester 4-C)"
  tested target: "HT29"
  property name: "CC50"
  uom: "µM"
  endpoint result: 9.88

Proceeding to the next compound to report its CC50.
In plain terms, COc1ccc(C[C@H]2C(=O)O[C@H](C)[C@H](NC(=O)[C@@H](CC(C)C)N(C)C(=O)[C@@H]3CCCN3C(=O)[C@H](C)O)C(=O)N[C@H](C(C)C)[C@@H](O)CC(=O)O[C@@H](C(C)C)C(=O)N[C@@H](CC(C)C)C(=O)N3CCC[C@H]3C(=O)N2C)cc1 [tamandarin B, Tamandarin B, reference compound] (H-[Lac]P[dNMeL]T[Hexanoyl(3S-OH,4R-NH2,5-Me)][Hiv]LP[NMeY](Me); ester 4-C) has a documented CC50 of 9.59

---

Tested on: HELA-APL
protocol description: SRB colorimetric cell growth inhibition assay, HELA-APL
details: read-out: LC50; HELA-APL cells; cell killing; SRB, 48 hours exposure
Starred links: 1 amine or outer side, 2 acyl side, 3 side chain; linkers in the order of their positions; H or OH if unused. Positions of bridges follow the written chain, without caps; N, C: chain ends. Non-standard residues stand in square brackets, D forms with d. Residues, ends and D or L forms follow the SMILES beside them. Hexanoyl(3S-OH,4R-NH2,5-Me) = CC(C)[C@@H](N[*:1])[C@@H](O)CC(=O)[*:2]; NMeY = CN[C@@H](Cc1ccc(O)cc1)C(=O)O; NMeF = CN[C@@H](Cc1ccccc1)C(=O)O; dNMeL = CN[C@H](CC(C)C)C(=O)O; Hiv = CC(C)[C@H](O)C(=O)O; Lac = C[C@H](O)C(=O)O
Parameter CC50: see the listing below.
Numbers only; they are read as µM.

- molecule: "COc1ccc(C[C@H]2C(=O)O[C@H](C)[C@H](NC(=O)[C@@H](CC(C)C)N(C)C(=O)[C@@H]3CCCN3C(=O)[C@H](C)O)C(=O)N[C@H](C(C)C)[C@@H](O)CC(=O)O[C@@H](C(C)C)C(=O)N[C@@H](CC(C)C)C(=O)N3CCC[C@H]3C(=O)N2C)cc1 [tamandarin B, Tamandarin B, reference compound] (H-[Lac]P[dNMeL]T[Hexanoyl(3S-OH,4R-NH2,5-Me)][Hiv]LP[NMeY](Me); ester 4-C)"
  property name: "CC50"
  uom: "µM"
  endpoint result: 9.59

Here's the next entry for you.
Consider CC(C)C[C@@H]1NC(=O)[C@H](C(C)C)OC(=O)C[C@H](O)[C@@H](C(C)C)NC(=O)[C@@H](NC(=O)[C@@H](CC(C)C)N(C)C(=O)[C@@H]2CCCN2C(=O)[C@H](C)O)[C@@H](C)OC(=O)[C@H](Cc2ccccc2)N(C)C(=O)[C@@H]2CCCN2C1=O [Phe^5 tamandarin B, [N-MePhe^5]-Tamandarin B] (H-[Lac]P[dNMeL]T[Hexanoyl(3S-OH,4R-NH2,5-Me)][Hiv]LP[NMeF]; ester 4-C) . Its measured CC50 is 9.88
